# System: Gag-Pol polyprotein (Human immunodeficiency virus type 1 group M subtype B (isolate NY5))
# Method summary: RNA-dependent DNA Polymerase (RDDP) Assay
# Condition details: pH 8.1; 37 °C
# Description: RNA-dependent DNA polymerase (RDDP) activity was measured as described[J. Microbiol. […] After enzyme addition, the reaction mixture was incubated for 30 min at 37 °C, then the reaction was stopped by addition of EDTA.
Items are presented alongside their recorded IC50.
A number alone suffices; assume µM.

Reference set (2 entries):
Molecule	IC50 (µM)
CCCCCn1c(=O)c2c(nc3n2CC(C)CN3c2ccc(OC)cc2)n(C)c1=O (stereo unspecified)	100
CCOc1ccc(N2CC(O)Cn3c2nc2c3c(=O)n(CC(=O)OCc3ccccc3)c(=O)n2C)cc1 (stereo unspecified)	28.5

Now for another entry.
So, `CCCCCn1c(=O)c2c(nc3n2CCCN3c2ccc(Oc3ccccc3)cc2)n(C)c1=O` ? Its IC50 was 69

Values compiled from BindingDB's records for doi:10.1002/cbic.201500668.
